# target_or_system: EGFR WT (amino acids 669-1011, Accession Number NP_005219.2) (Homo sapiens, UniProt P00533)
# Sequence (P00533 669-1011): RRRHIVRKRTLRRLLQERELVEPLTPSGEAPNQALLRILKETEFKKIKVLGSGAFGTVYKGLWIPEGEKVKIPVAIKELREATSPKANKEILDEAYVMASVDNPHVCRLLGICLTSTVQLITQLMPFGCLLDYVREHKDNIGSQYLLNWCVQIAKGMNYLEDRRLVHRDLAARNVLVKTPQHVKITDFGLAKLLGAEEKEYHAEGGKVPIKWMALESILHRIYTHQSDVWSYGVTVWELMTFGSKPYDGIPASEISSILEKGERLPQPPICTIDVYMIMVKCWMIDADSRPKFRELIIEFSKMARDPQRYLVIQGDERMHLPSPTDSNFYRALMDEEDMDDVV
property_measured: Kd

[[record]]
compound = "C=CC(=O)N[C@@H]1CN(c2nc(Nc3cn(CCCN4CCN(CCCNC(=O)c5ccc(Nc6ncc7c(n6)N(C6CCCC6)[C@H](CC)C(=O)N7C)c(OC)c5)CC4)nc3OC)c3ncn(C)c3n2)C[C@H]1F [Compound I-136]"
property_measured = "Kd"
result = "< 50 nM"

[[record]]
compound = "C=CC(=O)Nc1cc(Nc2nccc(-c3cn(C)c4ccccc34)n2)c(OC)cc1N(C)CCN(C)CCOCCON(C)C(=O)N1N=C(c2cc(F)ccc2F)S[C@@]1(CCCN)c1ccccc1 [Compound I-127]"
property_measured = "Kd"
result = "50 to 500 nM"

[[record]]
compound = "C=CC(=O)N[C@@H]1CN(c2nc(Nc3cn(CCOCCOCCNC(=O)c4ccc(Nc5ncc6c(n5)N(C5CCCC5)[C@H](CC)C(=O)N6C)c(OC)c4)nc3OC)c3ncn(C)c3n2)C[C@H]1F [Compound I-128]"
property_measured = "Kd"
result = "50 to 500 nM"

[[record]]
compound = "C=CC(=O)N[C@@H]1CN(c2nc(Nc3cn(CCOCCOCCOCCOCCOCCOCCOc4ccc(CNc5cc(N6CCCC[C@@H]6CCO)nc6c(CC)cnn56)cn4)nc3OC)c3ncn(C)c3n2)C[C@H]1F [Compound I-140]"
property_measured = "Kd"
result = "50 to 500 nM"

[[record]]
compound = "C=CC(=O)Nc1cc(Nc2nccc(-c3cn(C)c4ccccc34)n2)c(OC)cc1N(C)CCN(C)CCOCCOCCNS(=O)(=O)c1ccc(Nc2ncc(Br)c(Nc3cccc(F)c3C(N)=O)n2)cc1 [Compound I-33]"
property_measured = "Kd"
result = "50 to 500 nM"

[[record]]
compound = "C=CC(=O)Nc1cc(Nc2nccc(-c3cn(C)c4ccccc34)n2)c(OC)cc1N(C)CCN(C)CCOCCOCCOCCOCCOCCOCCON(C)C(=O)N1N=C(c2cc(F)ccc2F)SC1(CCCN)c1ccccc1 (stereo not shown) [Compound I-68]"
property_measured = "Kd"
result = "500 to 2500 nM"

[[record]]
compound = "C=CC(=O)Nc1cc(Nc2nccc(-c3cn(C)c4ccccc34)n2)c(OC)cc1N(C)CCN(C)CCOCCOCCOCCOCCON(C)C(=O)N1N=C(c2cc(F)ccc2F)SC1(CCCN)c1ccccc1 (stereo not shown) [Compound I-67]"
property_measured = "Kd"
result = "50 to 500 nM"

[[record]]
compound = "CCC1C(=O)N(C)c2cnc(Nc3ccc(C(=O)NCCOCCOCCOCCOCCN(C)CC=CC(=O)NC4CN(c5nc(Nc6cn(C)nc6OC)c6ncn(C)c6n5)CC4F)cc3OC)nc2N1C1CCCC1 (stereo not shown) [Compound I-126]"
property_measured = "Kd"
result = "500 to 2500 nM"

[[record]]
compound = "C=CC(=O)Nc1cc(Nc2nccc(-c3cn(C)c4ccccc34)n2)c(OC)cc1N(C)CCN(C)CCOCCOCCOc1ccc(CNc2cc(N3CCCC[C@H]3CCO)nc3c(CC)cnn23)cn1 [Compound I-141]"
property_measured = "Kd"
result = "50 to 500 nM"

[[record]]
compound = "C=CC(=O)N[C@@H]1CN(c2nc(Nc3cn(CCCNC(=O)c4ccc(Nc5ncc6c(n5)N(C5CCCC5)[C@H](CC)C(=O)N6C)c(OC)c4)nc3OC)c3ncn(C)c3n2)C[C@H]1F [Compound I-131]"
property_measured = "Kd"
result = "500 to 2500 nM"

[[record]]
compound = "C=CC(=O)Nc1cc(Nc2nccc(-c3cn(C)c4ccccc34)n2)c(OC)cc1N(C)CCN(C)CCOCCOCCOCCOCCOc1ccc(CNc2cc(N3CCCC[C@H]3CCO)nc3c(CC)cnn23)cn1 [Compound I-132]"
property_measured = "Kd"
result = "50 to 500 nM"

[[record]]
compound = "CC[C@@H]1C(=O)N(C)c2cnc(Nc3ccc(C(=O)NCCOCCOCCOCCOCCN(C)C/C=C/C(=O)Nc4cc(Nc5nccc(-c6cn(C)c7ccccc67)n5)c(OC)cc4N(C)CCN(C)C)cc3OC)nc2N1C1CCCC1 [Compound I-123]"
property_measured = "Kd"
result = "> 2500 nM"

[[record]]
compound = "C=CC(=O)N[C@@H]1CN(c2nc(Nc3cn(CCCN4CCN(CCCON(C)C(=O)N5N=C(c6cc(F)ccc6F)S[C@@]5(CCCN)c5ccccc5)CC4)nc3OC)c3ncn(C)c3n2)C[C@H]1F [Compound I-137]"
property_measured = "Kd"
result = "< 50 nM"

[[record]]
compound = "C=CC(=O)Nc1cc(Nc2nccc(-c3cn(C)c4ccccc34)n2)c(OC)cc1N(C)CCN(C)CCOCCOCCOCCOCCOCCOCCOCCOCCON(C)C(=O)N1N=C(c2cc(F)ccc2F)SC1(CCCN)c1ccccc1 (stereo not shown) [Compound I-69]"
property_measured = "Kd"
result = "500 to 2500 nM"

[[record]]
compound = "C=CC(=O)Nc1cc(Nc2nccc(-c3cn(C)c4ccccc34)n2)c(OC)cc1N(C)CCN(C)CCCCNS(=O)(=O)c1ccc(Nc2ncc(Br)c(Nc3cccc(F)c3C(N)=O)n2)cc1 [Compound I-29]"
property_measured = "Kd"
result = "50 to 500 nM"

[[record]]
compound = "CC[C@@H]1C(=O)N(C)c2cnc(Nc3ccc(C(=O)NCCOCCOCCOCCOCCN(C)C/C=C/C(=O)N[C@@H]4CN(c5nc(Nc6cn(C)nc6OC)c6ncn(C)c6n5)C[C@H]4F)cc3OC)nc2N1C1CCCC1 [Compound I-129]"
property_measured = "Kd"
result = "500 to 2500 nM"

[[record]]
compound = "C=CC(=O)N[C@@H]1CN(c2nc(Nc3cn(CCCCNS(=O)(=O)c4ccc(Nc5ncc(Br)c(Nc6cccc(F)c6C(N)=O)n5)cc4)nc3OC)c3ncn(C)c3n2)CC1F (stereo partly shown) [Compound I-150]"
property_measured = "Kd"
result = "< 50 nM"

[[record]]
compound = "C=CC(=O)Nc1cc(Nc2nccc(-c3cn(C)c4ccccc34)n2)c(OC)cc1N(C)CCN(C)CCCCCCCCNS(=O)(=O)c1ccc(Nc2ncc(Br)c(Nc3cccc(F)c3C(N)=O)n2)cc1 [Compound I-28]"
property_measured = "Kd"
result = "50 to 500 nM"

[[record]]
compound = "C=CC(=O)N[C@@H]1CN(c2nc(Nc3cn(CCOCCOCCOCCOCCOCCOCCNS(=O)(=O)c4ccc(Nc5ncc(Br)c(Nc6cccc(F)c6C(N)=O)n5)cc4)nc3OC)c3ncn(C)c3n2)C[C@H]1F [Compound I-143]"
property_measured = "Kd"
result = "< 50 nM"

